The measured values listed here are drawn from paper PMC10057480.

# Target or system: FXR (Homo sapiens)
# Construct: expressed in transfected cells; host or cells: HepG2
# Sequence (Q96RI1 1-486): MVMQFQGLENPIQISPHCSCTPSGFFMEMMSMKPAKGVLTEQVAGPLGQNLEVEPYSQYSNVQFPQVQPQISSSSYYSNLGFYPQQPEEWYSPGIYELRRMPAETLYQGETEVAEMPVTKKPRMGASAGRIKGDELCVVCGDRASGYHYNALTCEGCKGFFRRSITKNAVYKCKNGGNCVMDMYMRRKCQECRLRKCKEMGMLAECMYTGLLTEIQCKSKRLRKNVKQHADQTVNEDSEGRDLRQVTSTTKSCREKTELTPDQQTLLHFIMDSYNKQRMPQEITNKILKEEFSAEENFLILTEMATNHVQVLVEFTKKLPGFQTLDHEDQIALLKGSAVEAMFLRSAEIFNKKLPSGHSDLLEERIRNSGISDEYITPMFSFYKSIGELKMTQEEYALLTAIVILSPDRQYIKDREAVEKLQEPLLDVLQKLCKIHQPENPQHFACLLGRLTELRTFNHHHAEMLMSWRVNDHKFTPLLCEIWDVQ
# Assay details: FXR luciferase reporter transactivation assay (antagonism) on HepG2 cells
# Type: cell-based
# Conditions: HepG2 transactivation; compounds at 50 μM; percent inhibition of transactivation set at 100%; mean ± SD, at least three experiments
Measured quantity: FXR Antagonism Eff (%)

CCCN1CCC(c2nc(-c3ccc4ccccc4c3)no2)CC1 ... Toxic
CCC(C)N1CCC(c2nc(-c3ccc4ccccc4c3)no2)CC1 (centres unmarked) ... Toxic
CCCCCCCN1CCC(c2nc(-c3ccc4ccccc4c3)no2)CC1 ... Toxic
CCN1CCC(c2nc(-c3ccc4ccccc4c3)no2)CC1 ... Toxic
CCCCN1CCC(c2nc(-c3ccc4ccccc4c3)no2)CC1 ... 38 ± 5%
